Biological target: human TLR8 (Homo sapiens (Human))
Test: TLR8 inhibition reporter assay (HEK-Blue SEAP reporter, R848 stimulation)
pIC50: −log10 of the molar value. Structures can show the parent of a compound that is named as a salt.
pIC50 for assorted compounds
measurement type: pIC50

{"columns": ["compound", "measurement type", "experimental result"],
 "data": [
  ["COc1ccc(-c2[nH]c3ccc(C(=O)N4CC5CNCC5C4)cc3c2CC(F)(F)F)cc1OC (stereo not shown) [Example 88, hydrochloride]", "pIC50", 6.56],
  ["Cc1cc(-c2[nH]c3ccc(C(=O)N4CC5CNCC5C4)cc3c2C(C)C)cc(C)n1 (stereo not shown) [Example 107, HCl]", "pIC50", 7.24],
  ["Cc1cc(-c2[nH]c3ccc(C(=O)N4CC5CNCC5C4)cc3c2C(C)C)ccn1 (stereo not shown) [Example 112, HCl]", "pIC50", 7.44],
  ["Cc1cc(-c2[nH]c3ccc(C(C)C(=O)NC4CCN(C(C)C)CC4)cc3c2C(C)C)ccn1 (stereo not shown) [Example 194]", "pIC50", 6.97]
]}

* * *

Target: human TLR9 (Homo sapiens (Human), UniProt Q9NR96)
Sequence (Q9NR96 26-1032): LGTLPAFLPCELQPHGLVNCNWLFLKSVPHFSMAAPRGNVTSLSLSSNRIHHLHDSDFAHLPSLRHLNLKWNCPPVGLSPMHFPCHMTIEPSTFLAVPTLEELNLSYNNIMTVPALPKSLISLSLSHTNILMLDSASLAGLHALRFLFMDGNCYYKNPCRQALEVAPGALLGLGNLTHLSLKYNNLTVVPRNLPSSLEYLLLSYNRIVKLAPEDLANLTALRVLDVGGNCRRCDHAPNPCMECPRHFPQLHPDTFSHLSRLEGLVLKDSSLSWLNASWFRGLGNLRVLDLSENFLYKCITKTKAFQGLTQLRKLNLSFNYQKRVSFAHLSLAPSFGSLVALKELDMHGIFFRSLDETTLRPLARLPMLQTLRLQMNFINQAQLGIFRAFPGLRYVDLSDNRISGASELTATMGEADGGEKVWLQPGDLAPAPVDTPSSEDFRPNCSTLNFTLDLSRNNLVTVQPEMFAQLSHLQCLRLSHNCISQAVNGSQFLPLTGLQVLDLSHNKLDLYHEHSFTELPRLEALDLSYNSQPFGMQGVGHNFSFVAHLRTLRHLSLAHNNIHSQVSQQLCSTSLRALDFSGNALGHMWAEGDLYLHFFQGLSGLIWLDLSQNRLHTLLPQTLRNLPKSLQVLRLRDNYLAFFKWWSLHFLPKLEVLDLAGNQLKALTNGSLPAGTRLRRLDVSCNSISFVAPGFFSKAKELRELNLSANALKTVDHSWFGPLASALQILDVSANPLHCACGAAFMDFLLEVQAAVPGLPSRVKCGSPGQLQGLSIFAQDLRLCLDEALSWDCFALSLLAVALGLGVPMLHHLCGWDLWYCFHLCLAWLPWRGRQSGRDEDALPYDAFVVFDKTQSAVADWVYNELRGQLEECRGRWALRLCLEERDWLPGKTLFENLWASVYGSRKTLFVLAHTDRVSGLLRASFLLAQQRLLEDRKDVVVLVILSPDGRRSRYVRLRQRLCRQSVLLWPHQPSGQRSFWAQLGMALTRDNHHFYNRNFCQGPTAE
Assay: TLR9 inhibition reporter assay (HEK-Blue SEAP reporter, ODN2006 stimulation);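 also: SEAP reporter under IFN-β minimal promoter with five NF-κB and AP-1 sites, 22 h incubation, compounds 0.05 nM–50 µM, inhibition relative to agonist plus DMSO versus known inhibitor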
Counter-ions that a name gives are not always drawn.
IC50 for assorted molecules

{"columns": ["molecule", "quantity unit", "IC50"],
 "data": [
  ["Cc1cc(-c2[nH]c3ccc(C(=O)N4CC5CNCC5C4)cc3c2C(C)C)ccn1 (stereo not shown) [Example 112, HCl]", "nM", 334],
  ["COc1ccc(-c2[nH]c3ccc(C(=O)N4CC5CNCC5C4)cc3c2CC(F)(F)F)cc1OC (stereo not shown) [Example 88, hydrochloride]", "nM", 593],
  ["Cc1cc(-c2[nH]c3ccc(C(=O)N4CC5CNCC5C4)cc3c2C(C)C)cc(C)n1 (stereo not shown) [Example 107, HCl]", "nM", 264],
  ["Cc1cc(-c2[nH]c3ccc(C(C)C(=O)NC4CCN(C(C)C)CC4)cc3c2C(C)C)ccn1 (stereo not shown)", "nM", 3890]
]}

* * *

Biological target: human TLR7 (Homo sapiens (Human), UniProt Q9NYK1)
Sequence (Q9NYK1 27-1049): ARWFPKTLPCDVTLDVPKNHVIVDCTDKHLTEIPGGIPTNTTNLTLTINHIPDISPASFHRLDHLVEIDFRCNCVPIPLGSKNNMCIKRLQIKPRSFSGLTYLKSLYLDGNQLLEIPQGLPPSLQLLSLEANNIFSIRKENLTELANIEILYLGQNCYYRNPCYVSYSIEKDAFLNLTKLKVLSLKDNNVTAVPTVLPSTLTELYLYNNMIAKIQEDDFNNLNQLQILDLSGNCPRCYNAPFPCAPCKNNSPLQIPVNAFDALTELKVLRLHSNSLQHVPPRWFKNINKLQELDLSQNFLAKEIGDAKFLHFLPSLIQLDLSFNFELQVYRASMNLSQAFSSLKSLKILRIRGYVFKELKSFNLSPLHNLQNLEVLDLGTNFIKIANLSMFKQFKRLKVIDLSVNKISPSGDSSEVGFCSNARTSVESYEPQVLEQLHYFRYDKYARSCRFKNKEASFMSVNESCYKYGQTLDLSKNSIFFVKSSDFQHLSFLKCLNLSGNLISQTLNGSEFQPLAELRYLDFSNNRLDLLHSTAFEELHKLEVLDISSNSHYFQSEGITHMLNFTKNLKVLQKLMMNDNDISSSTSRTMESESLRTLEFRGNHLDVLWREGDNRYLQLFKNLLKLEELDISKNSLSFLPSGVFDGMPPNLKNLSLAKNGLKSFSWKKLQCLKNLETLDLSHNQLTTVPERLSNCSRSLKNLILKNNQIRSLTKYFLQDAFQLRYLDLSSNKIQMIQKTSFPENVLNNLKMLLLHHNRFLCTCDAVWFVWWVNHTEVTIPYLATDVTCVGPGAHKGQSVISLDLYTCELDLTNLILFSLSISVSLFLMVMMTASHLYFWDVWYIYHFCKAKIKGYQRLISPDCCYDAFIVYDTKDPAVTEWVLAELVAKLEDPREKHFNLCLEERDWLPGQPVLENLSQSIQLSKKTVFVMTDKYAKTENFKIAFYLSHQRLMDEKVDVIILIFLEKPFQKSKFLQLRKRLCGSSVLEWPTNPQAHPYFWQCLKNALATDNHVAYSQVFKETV
Assay: TLR7 inhibition reporter assay (HEK-Blue SEAP reporter, gardiquimod stimulation)
Assay type: cell-based
Conditions: HEK-Blue cells overexpressing human TLR7, gardiquimod 7.5 μM
log10 of IC50 for assorted compounds
measurement type: log10 of IC50 (log10 of the value in nM)

{"columns": ["compound", "log10 of IC50"],
 "data": [
  ["Cc1cc(-c2[nH]c3ccc(C(=O)N(C)C)cc3c2C(C)C)cc(C)n1", 1.26],
  ["CCc1c(-c2ccc(OC)c(OC)c2)[nH]c2ccc(C(=O)N3CCC[C@H]3COC)cc12", 3.24],
  ["COc1ccc(-c2[nH]c3ccc(C(=O)N4CC5CN(C)CC5C4)cc3c2C(C)C)cc1OC (stereo not drawn)", 1.79],
  ["Cc1cc(-c2[nH]c3ccc(C(C)(C)C(=O)N4CCC5(CCNC5)CC4)cc3c2C(C)C)ccn1", 1.88],
  ["CCc1c(-c2ccc(OC)c(OC)c2)[nH]c2ccc(C(=O)N3CCN(c4ccc(C(F)(F)F)cn4)CC3)cc12", 3.61],
  ["Cc1cc(-c2[nH]c3ccc(C(=O)NC4CCN(C(C)C)CC4)cc3c2C(C)C)ccn1", 1.70],
  ["CCc1c(-c2ccc(OC)c(OC)c2)[nH]c2ccc(C(=O)NC3CCC(N(C)C)CC3)cc12 (stereo not drawn)", 2.02],
  ["COc1cc(-c2[nH]c3ccc(C(=O)N(C)CCN(C)C)cc3c2C(C)C)cn2ncnc12", 0.26],
  ["CCc1c(-c2ccc(OC)c(OC)c2)[nH]c2ccc(C(=O)N(C)Cc3cccnc3)cc12", 2.55],
  ["CCN(CC)C(=O)C1CCCN(CC(=O)N2CC3CN(C(=O)c4ccc5[nH]c(-c6ccc(OC)c(OC)c6)c(C(C)C)c5c4)CC3C2)C1 (racemic) [Example 8]", 2.11],
  ["Cc1cc(-c2[nH]c3ccc(C(C)(C)C(=O)NCCC4CCCNC4)cc3c2C(C)C)ccn1 (stereo not drawn)", 1.83],
  ["CNC(=O)CN1CC2CN(C(=O)c3ccc4[nH]c(-c5ccc(OC)c(OC)c5)c(C(C)C)c4c3)CC2C1 (stereo not drawn)", 2.54],
  ["Cc1cc(-c2[nH]c3ccc(C(C)(C)C(=O)N4CCCC(CN)C4)cc3c2C(C)C)ccn1 (stereo not drawn)", 1.72],
  ["Cc1cc(-c2[nH]c3ccc(C(C)(C)C(=O)NC4CCNCC4)cc3c2C(C)C)ccn1", 1.54],
  ["Cc1cc(-c2[nH]c3ccc(C(C)(C)C(=O)NC4CCCC(N)C4)cc3c2C(C)C)ccn1 (stereo not drawn)", 1.98]
]}

* * *

Molecular target: human TLR8 (Homo sapiens (Human), UniProt Q9NR97)
Sequence (Q9NR97 27-1041): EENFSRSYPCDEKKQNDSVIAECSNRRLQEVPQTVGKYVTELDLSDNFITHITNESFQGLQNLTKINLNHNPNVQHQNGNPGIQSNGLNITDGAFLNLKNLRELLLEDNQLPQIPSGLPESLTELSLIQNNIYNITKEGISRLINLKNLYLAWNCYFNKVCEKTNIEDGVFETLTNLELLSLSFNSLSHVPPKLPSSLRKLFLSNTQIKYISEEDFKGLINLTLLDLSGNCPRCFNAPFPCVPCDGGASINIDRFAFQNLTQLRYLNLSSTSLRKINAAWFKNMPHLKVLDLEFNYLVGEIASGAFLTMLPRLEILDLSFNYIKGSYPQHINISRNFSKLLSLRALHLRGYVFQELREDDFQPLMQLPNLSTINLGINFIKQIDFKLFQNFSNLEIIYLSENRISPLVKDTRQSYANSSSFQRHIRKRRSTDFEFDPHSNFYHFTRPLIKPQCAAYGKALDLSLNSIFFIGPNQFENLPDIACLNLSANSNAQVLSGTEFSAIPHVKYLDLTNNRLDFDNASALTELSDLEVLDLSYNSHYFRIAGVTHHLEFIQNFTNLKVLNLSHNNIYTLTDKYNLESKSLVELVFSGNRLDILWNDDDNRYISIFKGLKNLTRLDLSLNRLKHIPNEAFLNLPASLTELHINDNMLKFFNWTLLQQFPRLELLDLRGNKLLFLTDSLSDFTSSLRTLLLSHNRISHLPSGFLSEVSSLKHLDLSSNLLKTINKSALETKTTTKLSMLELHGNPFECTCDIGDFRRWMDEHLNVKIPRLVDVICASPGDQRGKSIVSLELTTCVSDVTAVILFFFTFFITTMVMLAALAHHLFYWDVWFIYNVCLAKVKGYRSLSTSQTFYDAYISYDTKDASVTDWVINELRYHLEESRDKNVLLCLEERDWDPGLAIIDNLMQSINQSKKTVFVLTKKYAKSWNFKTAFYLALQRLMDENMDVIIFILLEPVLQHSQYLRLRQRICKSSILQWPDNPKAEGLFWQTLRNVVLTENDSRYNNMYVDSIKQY
Experiment: TLR8 inhibition reporter assay (HEK-Blue SEAP reporter, R848 stimulation)
Conditions: read-out: TLR8 IC50; HEK-Blue cells overexpressing human TLR8, R848 15.9 μM, SEAP reporter
pIC50: −log10 of the molar value.
measurement type: pIC50

{"columns": ["compound", "measurement type", "experimental result"],
 "data": [
  ["CCc1c(-c2ccnc3[nH]ccc23)[nH]c2ccc(C(=O)N(CC)CCN(C)C)cc12", "pIC50", 9.30],
  ["Cc1cc(-c2[nH]c3ccc(C(C)(C)C(=O)N[C@@H]4CCCC[C@H]4N)cc3c2C(C)C)ccn1", "pIC50", 8.15],
  ["Cc1cc(-c2[nH]c3ccc(C(=O)N4CC5CN(C(C)C)CC5C4)cc3c2C(C)C)ccn1 (stereo not drawn)", "pIC50", 8.44],
  ["Cc1cc(-c2[nH]c3ccc(C(=O)N(C)Cc4ccccc4)cc3c2C(C)C)cc(C)n1", "pIC50", 6.32],
  ["CNCC(=O)N1CC2CN(C(=O)c3ccc4[nH]c(-c5ccnc(C)c5)c(C(C)C)c4c3)CC2C1 (stereo not drawn)", "pIC50", 6.65],
  ["CCc1c(-c2ccc(OC)c(OC)c2)[nH]c2ccc(C(=O)NCc3csc(-c4ccccc4)n3)cc12", "pIC50", 5.98],
  ["CCCN1CCC(N(C(=O)c2ccc3[nH]c(-c4cn(C)c(=O)c(Cl)c4C)c(C(C)C)c3c2)C2CC2)CC1", "pIC50", 9.15],
  ["CCc1c(-c2ccc(OC)c(OC)c2)[nH]c2ccc(C(=O)N(C)CCN(C)C)cc12", "pIC50", 8.41],
  ["Cc1cc(-c2[nH]c3ccc(C(C)C(=O)N4CCC(CN)CC4)cc3c2C(C)C)ccn1 (stereo not drawn)", "pIC50", 6.27],
  ["CCc1c(-c2ccc(OC)c(OC)c2)[nH]c2ccc(C(=O)N(C)Cc3csc(C4CCNCC4)n3)cc12", "pIC50", 7.37],
  ["CCc1c(-c2ccc(OC)c(OC)c2)[nH]c2ccc(C(=O)NCCN(C)C)cc12", "pIC50", 8.10],
  ["CCc1c(-c2ccc(OC)c(OC)c2)[nH]c2ccc(C(=O)N3CC4CN(C(C)C)CC4C3)cc12 (stereo not drawn)", "pIC50", 7.06],
  ["Cc1cc(-c2[nH]c3ccc(C(C)(C)C(=O)NCC4CCCNC4)cc3c2C(C)C)ccn1 (stereo not drawn)", "pIC50", 6.17],
  ["Cc1cc(-c2[nH]c3ccc(C(C)C(=O)N4CCC(N)CC4)cc3c2C(C)C)ccn1 (stereo not drawn)", "pIC50", 6.44],
  ["CCN(CC)C(=O)C1CCCN(CC(=O)N2CC3CN(C(=O)c4ccc5[nH]c(-c6ccc(OC)c(OC)c6)c(C(C)C)c5c4)CC3C2)C1 (single isomer, unassigned) [Example 11]", "pIC50", 6.19]
]}

* * *

IC50 for assorted molecules
Molecular target: human TLR8 (Homo sapiens (Human), UniProt Q9NR97)
Assay: TLR8 inhibition reporter assay (HEK-Blue SEAP reporter, R848 stimulation);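 also: SEAP driven by IFN-β minimal promoter with NF-κB and AP-1 sites, 22 h incubation, compounds 0.05 nM–50 µM, inhibition scaled between agonist plus DMSO and reference inhibitor wells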
Conditions: read-out: TLR8 IC50; HEK-Blue cells overexpressing human TLR8, R848 15.9 μM, SEAP reporter

{"columns": ["molecule", "quantity unit", "IC50"],
 "data": [
  ["COc1ccc(-c2[nH]c3ccc(C(=O)N4CC5CN(C(=O)CN(C)C)CC5C4)cc3c2CC(F)(F)F)cc1OC (stereo not shown) [Example 89]", "nM", 217],
  ["Cc1cc(-c2[nH]c3ccc(C(C)C(=O)N[C@@H]4CCCNC4)cc3c2C(C)C)ccn1 (stereo partly shown) [Example 195]", "nM", 75],
  ["Cc1cc(-c2[nH]c3ccc(C(C)C(=O)NC[C@H]4CCNC4)cc3c2C(C)C)ccn1 (stereo partly shown) [Example 212]", "nM", 1470],
  ["Cc1cc(-c2[nH]c3ccc(C(C)C(=O)N(C)C4CCNCC4)cc3c2C(C)C)ccn1 (stereo not shown) [Example 207]", "nM", 156]
]}

Each recorded value in this set is attributed to patent US11420973B2.
